Values compiled from PubChem BioAssay (NCI).

Would you kindly list TGI for each of these molecules?
- Tested on: NCI/ADR-RES ovarian
- PROTOCOL SUMMARY: NCI tumour cell line growth inhibition, 48 h

TGI measured on O=C1CSC(/C=C/c2ccccc2)N1c1ccc(-c2ccc(-n3c(-c4ccccc4)nc4ccccc4c3=O)cc2)cc1 (stereo not given) = > 100 µM

GET /value?item= "Cc1nc(Cl)c(Cl)c(Cl)n1" &field=TGI returns 15.3 µM

The following molecules each have a reported value; give each one's TGI.
1. CC[C@@]1(OC(=O)CN)C(=O)OCc2c1cc1n(c2=O)Cc2cc3cc4c(cc3nc2-1)OCO4
2. OC(CC(CC(O)(C(F)(F)Cl)C(F)(F)Cl)=NNc1ccccc1)(C(F)(F)Cl)C(F)(F)Cl
3. C=C1C(=O)O[C@H]2[C@H]1CC/C(Cn1cc(CNCCc3c[nH]c4ccc(Cl)cc34)nn1)=C\CC[C@@]1(C)O[C@@H]21
4. CCNC(C)(C)C(SS)c1ccc(Br)cc1 (stereo not given)
5. COc1ccc(-c2cc(-c3ccccc3)n(C3OCC(OC(C)=O)C(OC(C)=O)C3OC(C)=O)c(=S)c2C#N)cc1 (stereo not given)
6. CN(CCC#N)c1ccc(/C=C(\C#N)c2cccc(C(F)(F)F)c2)cc1

0.015 µM
8.62 µM
> 100 µM
> 100 µM
> 100 µM
> 100 µM

Okay, here is my list. What is TGI for each of these?
1. Cc1cc(C)nc(NS(=O)(=O)c2ccc(NN=c3c4ccccc4n(C)c4ccccc34)cc2)n1
2. CN(C)/C(N)=N/C(N)=Nc1cccc(Cl)c1

> 100 µM
> 100 µM

* * *

- Tested on: HS 578T breast
- PROTOCOL SUMMARY: NCI tumour cell line growth inhibition, 48 h
READOUT LABEL: TGI (µM)
Answers are plain numbers, in µM.

Take a look at these entries with their results.
Per the record, O=C(/C=C/C12c3ccccc3C(c3ccccc31)C1C(=O)N(c3ccccc3)C(=O)C12)c1ccc(Cl)cc1 (stereo not given) has TGI of 5.92

Entry "CN1CCN(CCCOc2cccc3nc(Nc4ccc(Cl)c(F)c4)ccc23)CC1" — recorded TGI = 5.77

Continuing:
The measured TGI associated with "O[C@@]1(c2cccs2)c2cccc(Cl)c2[C@](O)(c2cccs2)c2cccc(Cl)c21" reads 49.2

* * *

Can you tell me TGI for the items I'm about to list?
- Tested on: 786-0 renal
- PROTOCOL SUMMARY: NCI tumour cell line growth inhibition, 48 h

TGI for 786-0 renal with input "Cc1cc(C)nc(NS(=O)(=O)c2ccc(NN=c3c4ccccc4n(C)c4ccccc34)cc2)n1" equals > 100 µM

Hey, can you go through the list below and give me TGI for every item?
1. O=C(O)C1CCc2nnc(-c3ccccc3)n21 (stereo unspecified)
2. FC(F)(F)c1nc2ccc(SSc3ccc4nc(C(F)(F)F)[nH]c4c3)cc2[nH]1
3. NC1=NC(c2ccc(Cl)cc2)N(c2ccc(S(=O)(=O)Nc3ncccn3)cc2)C(N)=N1 (stereo unspecified)
4. C=C[C@@H](OCOCC[Si](C)(C)C)[C@@H](CC)OC(CCCOC(=O)C(C)(C)C)OC (stereo partly specified)

> 100 µM
> 100 µM
> 100 µM
88.5 µM

Dear reader, for each entry below, please note its TGI.
1. O=C(Cn1c(=O)c(-c2ccccc2)nc2ccccc21)c1ccc(Cl)cc1
2. COc1ccc(C(C#N)NC23CC4CC(CC(C4)C2)C3)cc1OC (stereo unspecified)
3. COc1cccc(C(=O)Nc2ccc(CN3CCc4nc5cc(OC)c(OC)cc5cc43)cc2)c1
4. CN(C)c1ccc(-c2ccc(-c3ccc(C(=N)N)c(F)c3)s2)cc1
5. CCOC(=O)N1CCN(c2c(C)nc(C)[nH]c2=O)CC1

1. 86.6 µM
2. > 100 µM
3. 9.71 µM
4. 3.49 µM
5. > 100 µM

I need TGI for every entry listed below, if you could help.
1. COc1cc([N+](=O)[O-])c(S(=O)(=O)O)cc1NS(=O)(=O)c1ccc(C)cc1
2. CC(=O)NC1=C(C)C(=O)c2c(nc3n2CCC3OC(=O)c2ccccc2)C1=N (stereo unspecified)
3. CC(=O)Nc1ccc(-c2c3nc(c(-c4cc5ccccc5[n+](C)c4)c4ccc([nH]4)c(-c4ccc(NC(C)=O)cc4)c4nc(c(-c5cc6ccccc6[n+](C)c5)c5ccc2[nH]5)C=C4)C=C3)cc1
4. CC1(C)C(c2ccccc2)=NN(O)c2ccccc21

> 100 µM
3.65 µM
35.6 µM
> 100 µM

Need TGI for each of these compounds.
1. O=S1(=O)NNC(=NCc2ccc(Cl)c(Cl)c2)c2ccccc21
2. COC(=O)C1CC(=O)CCC1c1ccccc1 (stereo unspecified)
3. CC(CN(C)C)C(=O)c1ccccc1C(=O)O (stereo unspecified)
4. N#Cc1nc(CSCc2ccccc2)oc1N
5. CCOC(=O)C1=C(C)NC2SC(=O)/C(=C\c3ccccc3Cl)N2C1c1ccccc1 (stereo unspecified)
6. CCN(CC)c1ccc2c(c1)OC(=O)C(c1nnc(-c3ccc([N+](=O)[O-])cc3)o1)C2 (stereo unspecified)
7. CC(NC(=O)C(OC(=O)C(C)NC(=O)OC(C)(C)C)C(C)C)C(=O)OC(C(=O)O)C(C)C (stereo unspecified)

1: > 100 µM; 2: > 100 µM; 3: > 100 µM; 4: > 100 µM; 5: > 100 µM; 6: > 100 µM; 7: > 100 µM

* * *

Hi there, I'd appreciate the recorded TGI for every entry that follows.
- Test system: LOX IMVI melanoma
- PROTOCOL SUMMARY: NCI tumour cell line growth inhibition, 48 h
Answers are plain numbers, in µM.

The examples below pair each entry with its known result.
Record for "Cc1cc(Cc2cc(C)c(O)c(C)c2)cc(C)c1O" under target or system LOX IMVI melanoma: TGI reported as 33.3

# value of TGI, LOX IMVI melanoma, item "O=C1c2cccc3cccc(c23)C(=O)N1CCCNCCCCNCCCN1C(=O)c2cccc3cccc(c23)C1=O" = 0.255

LOX IMVI melanoma data for "COc1cc(-c2n/c(=C\c3c(O)[nH]c4ccc(Cl)cc34)cc3c2=Nc2ccccc2-3)cc(OC)c1OC" ; its TGI: 1.89

Assay LOX IMVI melanoma, sample "COc1ccc(Cl)cc1Nc1nc(C(F)(F)F)ccc1C(=O)N/N=C/c1ccc([N+](=O)[O-])cc1" , TGI read: 4.79

Next:
Record "N=Nc1c(OC(=O)Nc2ccccc2)[nH]c2ccccc12" / LOX IMVI melanoma, TGI recorded as 33.7

* * *

- Tested on: MOLT-4 leukemia
- PROTOCOL SUMMARY: NCI tumour cell line growth inhibition, 48 h; in the data active = GI50 below about 0.43 µM; inactive = the rest
Please reply with one of these outcomes: active, inactive

Test call for this molecule, please: "CN(C)c1ccc2c(c1)CN1C(=O)c3ccccc3C1=N2"
inactive

# lookup: test call for "CC(=O)Nc1ccc(-c2c3nc(c(-c4cc5ccccc5[n+](C)c4)c4ccc([nH]4)c(-c4ccc(NC(C)=O)cc4)c4nc(c(-c5cc6ccccc6[n+](C)c5)c5ccc2[nH]5)C=C4)C=C3)cc1"
inactive

I'd appreciate the recorded outcome for Cc1c(C)c2c(c(C)c1NC(=O)/C=C\C(=O)O)CCC(C)(CCCC(C)CCCC(C)CCCC(C)C)O2 (centres undefined) from this test.
inactive

Test call, this molecule: "C=CCn1c(=O)c2cnc(Nc3ccc(N4CCN(C)CC4)cc3)nc2n1-c1ccc2c(n1)[C@@](O)(CC)CC2"
active

Recorded test outcome, item "CN1CCN(CCCOc2cccc3nc(Nc4ccc(Cl)c(F)c4)ccc23)CC1"
inactive

Per the records of this test, what outcome belongs to "NC(=O)c1cc(-c2ccncc2)cc(-c2ccccc2)c1N" ?
inactive

Hey, what did the test say about "O=C(COc1ccc(/C=C2\Oc3ccccc3C2=O)cc1)Nc1nccs1" ?
inactive

Returns: the outcome recorded for O=C(/C=C/C12c3ccccc3C(c3ccccc31)C1C(=O)N(c3ccccc3)C(=O)C12)c1ccc(Cl)cc1 (centres undefined) in this assay.
inactive

Please state the recorded outcome for this molecule: "Cc1csc(/C=N/NC(=O)c2nnn(-c3ccnc4c(C(F)(F)F)cccc34)c2C)c1"
inactive

* * *

Record form. Attribute: TGI. Fill in for each entry.
- Test system: SW-620 colon
- PROTOCOL SUMMARY: NCI tumour cell line growth inhibition, 48 h

Note to self: TGI recorded for "Oc1[nH]c2ccccc2c1N=NC(=S)N1CCCCC1" was 8.63 µM

Lookup result for "COc1cc2ccccc2c2cc([N+](=O)[O-])oc12" ; measured TGI: 15 µM

Per the record, "O=c1cc(CO)n(CCc2c[nH]c3ccccc23)cc1O" has TGI of > 100 µM

Value of TGI reported for the molecule O=S1CSCS1 (configuration not stated) is > 100 µM

Recorded TGI (molecule "Cc1nc(Cl)c(Cl)c(Cl)n1" ): 0.149 µM

# batch size: 7; output TGI per entry
1. CC1(C)C(c2ccccc2)=NN(O)c2ccccc21
2. FC(F)(F)c1nc2ccc(SSc3ccc4nc(C(F)(F)F)[nH]c4c3)cc2[nH]1
3. CC(C)(C)[Si](C)(C)OCC1CCC(n2cnc3c(=O)[nH]cnc32)O1 (configuration not stated)
4. N#Cc1nc(CSCc2ccccc2)oc1N
5. CCC(C)C(C(=O)N/N=C1/SCC(=O)N1C)C(=O)N/N=C1/SCC(=O)N1C (configuration not stated)
6. O[C@@]1(c2cccs2)c2cccc(Cl)c2[C@](O)(c2cccs2)c2cccc(Cl)c21
7. C[C@@]12c3c4ccc(C=O)c3Oc3ccc(C=O)c(c31)Oc1c(C=O)ccc(c12)O4

["> 100 µM", "> 100 µM", "> 100 µM", "> 100 µM", "> 100 µM", "44.8 µM", "> 100 µM"]
